# test_target: KcsA-Kv1.1 turret-only chimera (Streptomyces lividans | human)
# protocol: ELISA
pIC50: −log10 of the molar value.
measured_parameter: pIC50

binder | result
VSCTGSKDCYAPCRKQTGCPNAKCINKSCKCYGC [Maurotoxin, synthetic peptide] | < 6.00
